- assay system: T1, orthogonal hCD122 receptor (hoRb), hCD122 with H133D and Y134F (human, UniProt P14784 27-550); also: reference of the scale not given here
- T1 sequence: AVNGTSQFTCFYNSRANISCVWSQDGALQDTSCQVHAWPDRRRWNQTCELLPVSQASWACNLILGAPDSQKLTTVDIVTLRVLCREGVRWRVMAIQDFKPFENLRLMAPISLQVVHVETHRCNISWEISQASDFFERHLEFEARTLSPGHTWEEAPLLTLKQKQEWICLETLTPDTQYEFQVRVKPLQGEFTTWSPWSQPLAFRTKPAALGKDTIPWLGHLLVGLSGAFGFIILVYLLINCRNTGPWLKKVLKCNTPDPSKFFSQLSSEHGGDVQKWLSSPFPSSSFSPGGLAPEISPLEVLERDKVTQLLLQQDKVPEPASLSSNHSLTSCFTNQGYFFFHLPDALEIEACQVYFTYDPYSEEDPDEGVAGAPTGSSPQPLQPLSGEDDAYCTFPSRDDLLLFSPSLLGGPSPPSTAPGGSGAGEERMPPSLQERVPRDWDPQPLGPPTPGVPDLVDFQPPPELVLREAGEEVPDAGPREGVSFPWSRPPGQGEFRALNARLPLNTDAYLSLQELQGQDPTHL
- assay comment: cell-based or functional assay
measured quantity: Relative Proliferation Fold Change NKL 1:50 (fold)

See these solved cases before continuing.
N88Q, SQVLKA (ligand) APTSSSTKKTQLQLSQLLVLLKAILNGINNYKNPKLTRMLTFKFYMPKKATELKHLQCLEEELKPLEEVLNLAQSKNFHLRPRDLISQINVIVLELKGSETTFMCEYADETATIVEFLNRWITFCQSIISTLT    0.5
ΔT51, SQVLKA (ligand) APTSSSTKKTQLQLSQLLVLLKAILNGINNYKNPKLTRMLTFKFYMPKKAELKHLQCLEEELKPLEEVLNLAQSKNFHLRPRDLISNINVIVLELKGSETTFMCEYADETATIVEFLNRWITFCQSIISTLT    0.58
SQVLKH (ligand) APTSSSTKKTQLQLSQLLVLLKHILNGINNYKNPKLTRMLTFKFYMPKKATELKHLQCLEEELKPLEEVLNLAQSKNFHLRPRDLISNINVIVLELKGSETTFMCEYADETATIVEFLNRWITFCQSIISTLT    1.49
L18Y, SQVLKA (ligand) APTSSSTKKTQLQLSQLYVLLKAILNGINNYKNPKLTRMLTFKFYMPKKATELKHLQCLEEELKPLEEVLNLAQSKNFHLRPRDLISNINVIVLELKGSETTFMCEYADETATIVEFLNRWITFCQSIISTLT    1.19
KQVLKA (ligand) APTSSSTKKTQLQLKQLLVLLKAILNGINNYKNPKLTRMLTFKFYMPKKATELKHLQCLEEELKPLEEVLNLAQSKNFHLRPRDLISNINVIVLELKGSETTFMCEYADETATIVEFLNRWITFCQSIISTLT    2.63
L18K, SQVLKA (ligand) APTSSSTKKTQLQLSQLKVLLKAILNGINNYKNPKLTRMLTFKFYMPKKATELKHLQCLEEELKPLEEVLNLAQSKNFHLRPRDLISNINVIVLELKGSETTFMCEYADETATIVEFLNRWITFCQSIISTLT    0.76
SQVLDA (ligand) APTSSSTKKTQLQLSQLLVLLDAILNGINNYKNPKLTRMLTFKFYMPKKATELKHLQCLEEELKPLEEVLNLAQSKNFHLRPRDLISNINVIVLELKGSETTFMCEYADETATIVEFLNRWITFCQSIISTLT    0.95
L14M, SQVLKA (ligand) APTSSSTKKTQLQMSQLLVLLKAILNGINNYKNPKLTRMLTFKFYMPKKATELKHLQCLEEELKPLEEVLNLAQSKNFHLRPRDLISNINVIVLELKGSETTFMCEYADETATIVEFLNRWITFCQSIISTLT    1.98
SQVLAA (ligand) APTSSSTKKTQLQLSQLLVLLAAILNGINNYKNPKLTRMLTFKFYMPKKATELKHLQCLEEELKPLEEVLNLAQSKNFHLRPRDLISNINVIVLELKGSETTFMCEYADETATIVEFLNRWITFCQSIISTLT    0.62
G27S, SQVLKA (ligand) APTSSSTKKTQLQLSQLLVLLKAILNSINNYKNPKLTRMLTFKFYMPKKATELKHLQCLEEELKPLEEVLNLAQSKNFHLRPRDLISNINVIVLELKGSETTFMCEYADETATIVEFLNRWITFCQSIISTLT    1.53

(A) L18S, SQVLKA (ligand) APTSSSTKKTQLQLSQLSVLLKAILNGINNYKNPKLTRMLTFKFYMPKKATELKHLQCLEEELKPLEEVLNLAQSKNFHLRPRDLISNINVIVLELKGSETTFMCEYADETATIVEFLNRWITFCQSIISTLT
(B) ΔD20, SQV_KA (ligand) APTSSSTKKTQLQLSQLLVLKAILNGINNYKNPKLTRMLTFKFYMPKKATELKHLQCLEEELKPLEEVLNLAQSKNFHLRPRDLISNINVIVLELKGSETTFMCEYADETATIVEFLNRWITFCQSIISTLT
Q: Input pair: A , B . Output: entry with lower Relative Proliferation Fold Change NKL 1:50. Provide the label of your selected option as the answer.
A: B
